Provenance of the data: PubChem BioAssay (NCI)

# System: HCC-2998 colon
# Assay info: NCI tumour cell line growth inhibition, 48 h
The compounds listed here are annotated with their TGI.

Compound | TGI
COc1cccc(-c2c(C#N)c(N)nc3c2CCS(=O)(=O)c2ccc(C)cc2-3)c1 | > 100 µM
COc1ccc2nc(-c3cccs3)cc(C(O)CN3CCSCC3)c2c1 (stereo not given) | 58.9 µM
Cn1c(=O)c2c(nc(-n3nc(-c4ccc(Cl)cc4)cc3N)n2C)n(C)c1=O | > 100 µM
CC1SC2=NC3=C(c4ccccc4C3=O)C(c3ccc(F)cc3)N2C1=O (stereo not given) | > 100 µM
Cc1nc(N)nc(N)c1-c1ccc(Cl)c(Cl)c1 | > 50.6 µM

Task item: For CCOc1ccc(NC(=O)C(=O)CC(=O)C2=C(C)Nc3ccccc3S2)cc1 , write its TGI.
Reply: > 50 µM

Task item: For COc1ccc2nc(-n3c(/C=C/c4ccccc4O)nc4ccccc4c3=O)sc2c1 , write its TGI.
Reply: > 100 µM
